# Target system: T1, RST domain of Radical-Induced Cell Death1 (RCD1), RCD1-RST(499-572) (Arabidopsis, UniProt Q8RY59 499-572)
# T1 sequence (looked up): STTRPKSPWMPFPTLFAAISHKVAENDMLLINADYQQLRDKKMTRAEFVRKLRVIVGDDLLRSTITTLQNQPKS
# Assay procedure: NMR titration

{"columns": ["Binder", "Kd"],
 "data": [
  ["ANAC046(172-222, S175W), fragment containing AD1/M1-2 (domain or fragment, Arabidopsis thaliana, UniProt Q9SQQ6 172-222, looked up) NAPWTTITTTKQLSRIDSLDNIDHLLDFSSLPPLIDPGFLGQPGPSFSGAR", "148 µM"]
]}
